experiment: qHTS assay to identify small molecule antagonists of the estrogen related receptor (ERR) signaling pathway from Tox21 library (AID 1224848); conditions: ERR reporter cell line, luciferase antagonist mode, 18 h; series mostly up to 92.4 µM; note: nearly all actives have a fitted effect of over 50% in size
Inconclusive results are not listed. The source made the active and inactive calls. Calls come from the whole dose curve; as a rule, active = well fitted inhibition curve with a large enough effect in the repeat runs; inconclusive = weak or mixed curves; inactive = no such curve, though single readings can be large or run the other way.
Valid outcomes are listed here; reply with one: active, inactive

Exercise: // param item: Nc1ccc(C(=O)OCC(O)CO)cc1 (stereo not drawn) ; yields the recorded call
Key: inactive

Exercise: // param item: COc1cc(C=O)ccc1OC(=O)C(C)C ; yields the recorded call
Key: inactive

Exercise: // param item: CC(=O)c1ccc(OCC(=O)N2CCCCC2)cc1 ; yields the recorded call
Key: inactive

Exercise: // param item: Cc1ncc([N+](=O)[O-])n1CC(O)CCl (stereo not drawn) ; yields the recorded call
Key: inactive

Exercise: // param item: Cc1nc2n(c(=O)c1CCN1CCC(C(=O)c3ccc(F)cc3)CC1)CCS2 ; yields the recorded call
Key: active

Exercise: // param item: CCCOC(=O)CCCCC(=O)OCCC ; yields the recorded call
Key: inactive

Exercise: // param item: CCCCCC1CCCC(=O)O1 (stereo not drawn) ; yields the recorded call
Key: inactive

Exercise: // param item: O=C(O)CCNC(=O)c1ccccc1 ; yields the recorded call
Key: inactive

Exercise: // param item: NC(=O)C1(N2CCCCC2)CCN(CCCC(=O)c2ccc(F)cc2)CC1 ; yields the recorded call
Key: inactive

Exercise: // param item: C=C(C)C(=O)OC ; yields the recorded call
Key: inactive

Exercise: // param item: CC(C)C(=O)c1ccccc1 ; yields the recorded call
Key: inactive

Exercise: // param item: CCc1nccnc1C ; yields the recorded call
Key: inactive

Exercise: // param item: CC1CCC(C(C)(C)S)C(=O)C1 (stereo not drawn) ; yields the recorded call
Key: inactive

Exercise: // param item: CC(C)SCc1ccco1 ; yields the recorded call
Key: inactive

Exercise: // param item: NC(=O)NC(=O)Cc1ccccc1 ; yields the recorded call
Key: inactive

Exercise: // param item: Cc1ccccc1C ; yields the recorded call
Key: inactive

Exercise: // param item: CC(=O)c1ccc2c(c1)CCCC2 ; yields the recorded call
Key: inactive

Exercise: // param item: C=CCOC(=O)c1ccc(C(=O)OCC=C)c(C(=O)OCC=C)c1 ; yields the recorded call
Key: inactive

Exercise: // param item: Cc1c(C(C)C)c(=O)n(-c2ccccc2)n1C ; yields the recorded call
Key: inactive

Exercise: // param item: C1=CCC(c2ccccc2)CC1 (stereo not drawn) ; yields the recorded call
Key: inactive

Exercise: // param item: CCCCCCCCCCC ; yields the recorded call
Key: inactive

Exercise: // param item: NC(=O)NNC(N)=O ; yields the recorded call
Key: inactive

Exercise: // param item: FC(F)(F)c1ccc(Cl)cc1Cl ; yields the recorded call
Key: inactive

Exercise: // param item: O=C(O)c1ccc(OCCN2CCCCC2)cc1 ; yields the recorded call
Key: inactive

Exercise: // param item: C=C(C)C(=O)OCCCCCCOC(=O)C(=C)C ; yields the recorded call
Key: inactive

Exercise: // param item: CC(C)(c1ccc(Oc2ccc3c(c2)C(=O)OC3=O)cc1)c1ccc(Oc2ccc3c(c2)C(=O)OC3=O)cc1 ; yields the recorded call
Key: inactive

Exercise: // param item: CCC1COC(=O)O1 (stereo not drawn) ; yields the recorded call
Key: inactive

Exercise: // param item: Cc1ccccc1OCC1CO1 (stereo not drawn) ; yields the recorded call
Key: inactive

Exercise: // param item: COc1cccc2sc(N)nc12 ; yields the recorded call
Key: inactive

Exercise: // param item: CCCCCN(CCCOC)C(=O)C(CCC(=O)O)NC(=O)c1ccc(Cl)c(Cl)c1 (stereo not drawn) ; yields the recorded call
Key: inactive

Exercise: // param item: CCCCCCCCOC(C)=O ; yields the recorded call
Key: inactive

Exercise: // param item: CC(=O)OCCCc1ccccc1 ; yields the recorded call
Key: inactive

Exercise: // param item: O=C1c2ccccc2-c2ccccc21 ; yields the recorded call
Key: inactive

Exercise: // param item: O=P(O)(O)OCC(O)CO (stereo not drawn) ; yields the recorded call
Key: inactive

Exercise: // param item: C[C@H](CCC(=O)NCC(=O)O)[C@H]1CC[C@H]2[C@@H]3[C@H](O)C[C@@H]4C[C@H](O)CC[C@]4(C)[C@H]3C[C@H](O)[C@]12C ; yields the recorded call
Key: inactive

Exercise: // param item: CN(C1CCCCC1)S(=O)(=O)c1ccccc1N ; yields the recorded call
Key: inactive

Exercise: // param item: CC(C)C(=O)Nc1cccc(C(F)(F)F)c1 ; yields the recorded call
Key: inactive

Exercise: // param item: CCN(CCO)c1cccc(C)c1 ; yields the recorded call
Key: inactive

Exercise: // param item: CC(Cl)COP(=O)(OCC(C)Cl)OCC(C)Cl (stereo not drawn) ; yields the recorded call
Key: inactive

Exercise: // param item: CCCOCCOCCOCCO ; yields the recorded call
Key: inactive

Exercise: // param item: CN=C(NC#N)NCCSCc1csc(N=C(N)N)n1 ; yields the recorded call
Key: inactive

Exercise: // param item: CCCCC(CC)CNC(=O)CC(C)OC(=O)CCC(=O)O (stereo not drawn) ; yields the recorded call
Key: inactive

Exercise: // param item: CCCCOC(=O)C(=O)OCCCC ; yields the recorded call
Key: inactive

Exercise: // param item: Oc1ccccc1Cc1ccccc1O ; yields the recorded call
Key: inactive

Exercise: // param item: CCCCCCCCCCCCCCCC(=O)NCCO ; yields the recorded call
Key: inactive

Exercise: // param item: O=[Si]=O ; yields the recorded call
Key: inactive

Exercise: // param item: Cc1cccc(Nc2ccncc2S(=O)(=O)NC(=O)NC(C)C)c1 ; yields the recorded call
Key: inactive

Exercise: // param item: O=C(O)/C=C/c1ccccc1 ; yields the recorded call
Key: inactive

---

biological target: Luciferin 4-monooxygenase (Photinus pyralis); experiment: qHTS assay to identify small molecule inhibitors of firefly luciferase (AID 1224835); note: nearly all actives have a fitted effect of over 25% in size; conditions: purified P. pyralis luciferase, luminescence inhibition; series mostly up to 115 µM
Results filed as inconclusive are left out. The source made the active and inactive calls. Calls come from the whole dose curve; as a rule, active = well fitted inhibition curve with a large enough effect in the repeat runs; inconclusive = weak or mixed curves; inactive = flat fitted curve, though single readings scatter.
Valid outcomes are listed here; reply with one: active, inactive

Exercise: // param item: CCCCCC1CCCC(=O)O1 (centres undefined) ; yields the recorded call
Key: inactive

Exercise: // param item: CCCCCCCC[Si](OCC)(OCC)OCC ; yields the recorded call
Key: inactive

Exercise: // param item: CCCCC(C)C(=O)O (centres undefined) ; yields the recorded call
Key: inactive

Exercise: // param item: O=C(O)c1c(Cl)ccc(Cl)c1Cl ; yields the recorded call
Key: inactive

Exercise: // param item: CN=C(NC#N)NCCSCc1csc(N=C(N)N)n1 ; yields the recorded call
Key: inactive

Exercise: // param item: Nc1nc(=O)n([C@@H]2O[C@H](CO)[C@@H](O)[C@@H]2F)cc1I ; yields the recorded call
Key: inactive

Exercise: // param item: Cc1ccc2c(c1)c1c3n2CCNC3CCC1 (centres undefined) ; yields the recorded call
Key: inactive

Exercise: // param item: OC(CCN1CCCCC1)(c1ccccc1)c1ccccc1 ; yields the recorded call
Key: inactive

Exercise: // param item: Cc1cc(C)cc([N+](=O)[O-])c1 ; yields the recorded call
Key: inactive

Exercise: // param item: COc1cccc2sc(N)nc12 ; yields the recorded call
Key: inactive

Exercise: // param item: CC(C)COC(=O)/C=C/c1ccccc1 ; yields the recorded call
Key: active

Exercise: // param item: CC(=O)N1CCN(c2ccc(O)cc2)CC1 ; yields the recorded call
Key: inactive

Exercise: // param item: CCC1COC(=O)O1 (centres undefined) ; yields the recorded call
Key: inactive

Exercise: // param item: CC1(N)CCC(C(C)(C)N)CC1 (centres undefined) ; yields the recorded call
Key: inactive

---

assay: qHTS assay for small molecule disruptors of the mitochondrial membrane potential (AID 720635); conditions: HepG2 mitochondrial membrane potential, Mito-MPS dye ratio; series mostly up to 83.2 µM
Results filed as inconclusive are left out. Calls of active or inactive are those of the source. Calls follow the shape of the dose curve; as a rule, active = well fitted inhibition curve with a large enough effect in the signal ratio in the repeat runs; inconclusive = weak or mixed curves, or effect the other way; inactive = flat fitted curve, though single readings scatter; the % refers to the signal ratio.
Valid outcomes are listed here; reply with one: Y = active, N = inactive

Exercise: // param item: CN[C@@H]1[C@H](O)[C@H](NC)[C@H]2O[C@@]3(O)C(=O)C[C@@H](C)O[C@H]3O[C@@H]2[C@H]1O ; yields the recorded call
Key: N

Exercise: // param item: C=CCOc1c(Br)cc(C(C)(C)c2cc(Br)c(OCC=C)c(Br)c2)cc1Br ; yields the recorded call
Key: N

Exercise: // param item: NC(=O)NC(=O)Cc1ccccc1 ; yields the recorded call
Key: N

Exercise: // param item: CCCCCC1CCCC(=O)O1 (stereo not drawn) ; yields the recorded call
Key: N

Exercise: // param item: Nc1ccc(S(=O)(=O)NC(=O)c2ccccc2)cc1 ; yields the recorded call
Key: N

Exercise: // param item: Cc1nc(C)nc(N2C[C@@H](C)N(c3ccnc([C@@H](C)O)n3)[C@@H](C)C2)n1 ; yields the recorded call
Key: N

Exercise: // param item: CC(C)(C)c1ccc(C=O)cc1 ; yields the recorded call
Key: N

Exercise: // param item: O=C1c2ccccc2-c2ccccc21 ; yields the recorded call
Key: Y

Exercise: // param item: CCS(=O)(=O)CCn1c([N+](=O)[O-])cnc1C ; yields the recorded call
Key: N

Exercise: // param item: COCCOCCOCCOC ; yields the recorded call
Key: N

Exercise: // param item: CC(C)(c1ccc(Oc2ccc3c(c2)C(=O)OC3=O)cc1)c1ccc(Oc2ccc3c(c2)C(=O)OC3=O)cc1 ; yields the recorded call
Key: N

Exercise: // param item: CCCO ; yields the recorded call
Key: N

Exercise: // param item: CCOC(=O)C(C)(C)C ; yields the recorded call
Key: N

Exercise: // param item: Nc1c(NC/C=C\COc2cc(CN3CCCCC3)ccn2)c(=O)c1=O ; yields the recorded call
Key: N

Exercise: // param item: C1=C\CC/C=C\CC/1 ; yields the recorded call
Key: N

Exercise: // param item: CCOC(=O)OCC/C(SC(=O)OCC)=C(\C)N(C=O)Cc1cnc(C)nc1N ; yields the recorded call
Key: N

Exercise: // param item: O=c1cc(O)c(Cl)c[nH]1 ; yields the recorded call
Key: N

Exercise: // param item: COc1cccc2sc(N)nc12 ; yields the recorded call
Key: Y

Exercise: // param item: CCCCC[Si](OCC)(OCC)OCC ; yields the recorded call
Key: Y

Exercise: // param item: Nc1ccnc(=O)[nH]1 ; yields the recorded call
Key: N

Exercise: // param item: CC(=O)OC(C)(C)Cc1ccccc1 ; yields the recorded call
Key: N

Exercise: // param item: NC(=O)C1(N2CCCCC2)CCN(CCCC(=O)c2ccc(F)cc2)CC1 ; yields the recorded call
Key: N

Exercise: // param item: CC1CCC(C(C)(C)S)C(=O)C1 (stereo not drawn) ; yields the recorded call
Key: N

Exercise: // param item: C=CCOC(=O)c1ccc(C(=O)OCC=C)c(C(=O)OCC=C)c1 ; yields the recorded call
Key: N

Exercise: // param item: CC(=O)OCCCc1ccccc1 ; yields the recorded call
Key: N

Exercise: // param item: O=C(O)c1ccccc1C(=O)Nc1ccc(S(=O)(=O)Nc2nccs2)cc1 ; yields the recorded call
Key: N

Exercise: // param item: CCCCCCCCCCCCC1CO1 (stereo not drawn) ; yields the recorded call
Key: N

Exercise: // param item: CCCCC(=O)N(C)C ; yields the recorded call
Key: N
